// data source = patent US20230114728A1

Test system: N. gonorrhoeae WHO K
Protocol Description: Liquid broth MIC in Fastidious broth
Format: cell-based
Condition Set: Neisseria gonorrhoeae, read-out: Minimum Inhibitory Concentration, N. gonorrhoeae WHO K
Provide the reported MIC of each item.

Bench note: what MIC did NC1(CN2CCN(C(=O)N[C@@H](C(=O)N[C@H]3Cc4cccc(C(=O)O)c4OB3O)c3c(F)cc(O)cc3F)C(=O)C2=O)CC1 (single isomer, unassigned) show?
> 64 µg/mL

Here is the next molecule: CCN1CCN(C(=O)N[C@H](C(=O)N[C@H]2Cc3cccc(C(=O)O)c3OB2O)c2ccc(C(=O)O)cc2Cl)C(=O)C1=O (single isomer, unassigned)
16 to 32 µg/mL

Here is the next molecule: NCCN1CCN(C(=O)N[C@@H](C(=O)N[C@H]2Cc3cccc(C(=O)O)c3OB2O)c2cc(Cl)c(O)cc2Cl)C(=O)C1=O
> 64 µg/mL

Here is the next molecule: N=C(N)NCCN1CCN(C(=O)NC(C(=O)N[C@H]2Cc3ccc(F)c(C(=O)O)c3OB2O)c2ccc(C(=O)O)c(F)c2)C(=O)C1=O (stereo partly drawn)
> 64 µg/mL

Here is the next molecule: NCCN1CCN(C(=O)N[C@H](C(=O)N[C@H]2Cc3cccc(C(=O)O)c3OB2O)c2cc(Cl)c(O)c(Cl)c2)C(=O)C1=O (single isomer, unassigned)
> 64 µg/mL

Here is the next molecule: NCCN1CCN(C(=O)NC(C(=O)N[C@H]2Cc3cccc(C(=O)O)c3OB2O)c2cc(F)c(O)cc2F)C(=O)C1=O (stereo partly drawn)
> 64 µg/mL

Here is the next molecule: NCCCN1CCN(C(=O)N[C@H](C(=O)N[C@H]2Cc3cccc(C(=O)O)c3OB2O)c2cccc(NS(N)(=O)=O)c2)C(=O)C1=O
> 64 µg/mL

Here is the next molecule: CCN1CCN(C(=O)N[C@@H](C(=O)N[C@H]2Cc3cccc(C(=O)O)c3OB2O)c2ccc(C(=O)O)c(F)c2F)C(=O)C1=O (single isomer, unassigned)
1 to 2 µg/mL

Here is the next molecule: N[C@@H](C(=O)N[C@H]1Cc2ccc(F)c(C(=O)O)c2OB1O)c1ccc(OS(=O)(=O)F)cc1
> 64 µg/mL

Here is the next molecule: NCCCN1CCN(C(=O)NC(C(=O)N[C@H]2Cc3ccc(F)c(C(=O)O)c3OB2O)c2c(F)cc(O)cc2F)C(=O)C1=O (stereo partly drawn)
> 64 µg/mL

Here is the next molecule: NC(C(=O)N[C@H]1Cc2ccc(F)c(C(=O)O)c2OB1O)c1c(F)cc(O)c(O)c1Cl (stereo partly drawn)
> 64 µg/mL

Here is the next molecule: CCN1CCN(C(=O)N[C@H](C(=O)N[C@H]2Cc3cccc(C(=O)O)c3OB2O)c2nc(Cl)c(C(=O)O)cc2F)C(=O)C1=O
> 64 µg/mL
